System Under Test: α1a-AR (Homo sapiens)
Sequence (P35348 1-455 isoform P35348-4): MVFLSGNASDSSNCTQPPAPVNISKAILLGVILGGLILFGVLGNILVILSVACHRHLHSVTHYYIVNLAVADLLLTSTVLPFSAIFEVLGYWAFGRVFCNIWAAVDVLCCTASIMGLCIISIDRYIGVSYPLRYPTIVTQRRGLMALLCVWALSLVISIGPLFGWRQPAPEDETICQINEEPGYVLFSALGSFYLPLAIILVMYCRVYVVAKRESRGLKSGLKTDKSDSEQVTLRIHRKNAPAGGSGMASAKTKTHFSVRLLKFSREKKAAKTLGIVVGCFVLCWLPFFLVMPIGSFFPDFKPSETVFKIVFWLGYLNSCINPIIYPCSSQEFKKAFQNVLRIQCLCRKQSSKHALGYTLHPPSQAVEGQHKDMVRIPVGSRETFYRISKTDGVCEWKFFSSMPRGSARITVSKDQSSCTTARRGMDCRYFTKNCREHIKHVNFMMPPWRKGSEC
Assay Endpoint: Ki (nM)

P = O=S(=O)(N[C@H]1CC[C@@H](N2CCN(c3ncccc3OCC3CC3)CC2)CC1)c1cc(Cl)ccc1F [Cpd 11]
Q = COc1ccc(S(=O)(=O)N[C@H]2CC[C@@H](N3CCN(c4ncccc4OCC4CC4)CC3)CC2)cc1OC [Cpd 1]
Q: Please indicate which has the smaller reported Ki: P , or Q . In your reply, give the label of the chosen option.
Ans: P

Cited source for all entries: patent US7482348B2
